test system: NCI-H510 multicellular tumor spheroid growth, % test/control; assay: Anticancer human tumor NCI-H510 cell line growth inhibition [Asc]; conditions: second compound 0.316 µM; first compound 10 µM; active = viability on the fitted dose curve at most 10% of control; inactive = the rest;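 note: spheroids exposed to agents for 7 days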
Use one of these outcomes when replying: active, inactive

Study these solved cases before continuing.
{"columns": ["molecule", "assigned-class"],
 "data": [
  ["C#Cc1c(F)ccc2cc(O)cc(-c3ncc4c(N5CC6CCC(C5)N6)nc(OCC56CCCN5CC(F)C6)nc4c3F)c12 (stereo not given) + Cc1c(S(C)(=O)=O)c(-c2cc(F)cc(N3CCN(c4ccc(NS(=O)(=O)c5ccc(NC(CCN6CCC(C(=O)OCCCP(=O)(O)O)CC6)CSc6ccccc6)c(S(=O)(=O)C(F)(F)F)c5)cc4)CC3)c2)c(-c2ccc(Cl)cc2)n1C(C)C", "inactive"],
  ["O=C(c1cc(Cc2n[nH]c(=O)c3ccccc23)ccc1F)N1CCN(C(=O)C2CC2)CC1 + CNC(C)C(=O)NC1CN(S(=O)(=O)c2cccc(S(=O)(=O)N3CCC4CCC(C(=O)NC(c5ccccc5)c5ccccc5)N4C(=O)C(NC(=O)C(C)NC)C3)c2)CCC2CCC(C(=O)NC(c3ccccc3)c3ccccc3)N2C1=O", "inactive"],
  ["C=C(F)C(=O)N1CCN(c2nc(OCC3CCCN3C)nc3c2CCN(c2cccc4cccc(Cl)c24)C3)CC1CC#N (stereo not given) + Cc1c(S(C)(=O)=O)c(-c2cc(F)cc(N3CCN(c4ccc(NS(=O)(=O)c5ccc(NC(CCN6CCC(C(=O)OCCCP(=O)(O)O)CC6)CSc6ccccc6)c(S(=O)(=O)C(F)(F)F)c5)cc4)CC3)c2)c(-c2ccc(Cl)cc2)n1C(C)C", "active"],
  ["O=C(c1cc(Cc2n[nH]c(=O)c3ccccc23)ccc1F)N1CCN(C(=O)C2CC2)CC1 + Cc1c(S(C)(=O)=O)c(-c2cc(F)cc(N3CCN(c4ccc(NS(=O)(=O)c5ccc(NC(CCN6CCC(C(=O)OCCCP(=O)(O)O)CC6)CSc6ccccc6)c(S(=O)(=O)C(F)(F)F)c5)cc4)CC3)c2)c(-c2ccc(Cl)cc2)n1C(C)C", "active"]
]}

In the following, a different molecule is considered.
input: What was the test verdict on C=CC(=O)N1CCN(c2nc(=O)n(-c3c(C)ccnc3C(C)C)c3nc(-c4c(O)cccc4F)c(F)cc23)C(C)C1 (stereo not given) + Cc1c(S(C)(=O)=O)c(-c2cc(F)cc(N3CCN(c4ccc(NS(=O)(=O)c5ccc(NC(CCN6CCC(C(=O)OCCCP(=O)(O)O)CC6)CSc6ccccc6)c(S(=O)(=O)C(F)(F)F)c5)cc4)CC3)c2)c(-c2ccc(Cl)cc2)n1C(C)C ?
output: inactive

====

test system: NCI-H510 multicellular tumor spheroid growth, % test/control; test: Anticancer human tumor NCI-H510 cell line growth inhibition [Asc]; conditions: curve of first compound; second compound 0.1 µM;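 note: spheroids exposed to agents for 7 days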
pIC50: −log10 of the molar value.
measurement-kind: pIC50

{"columns": ["compound", "experimental-result"],
 "data": [
  ["CCN1CCN(Cc2ccc(Nc3ncc(F)c(-c4cc(F)c5nc(C)n(C(C)C)c5c4)n3)nc2)CC1 + CNC(C)C(=O)NC1CN(S(=O)(=O)c2cccc(S(=O)(=O)N3CCC4CCC(C(=O)NC(c5ccccc5)c5ccccc5)N4C(=O)C(NC(=O)C(C)NC)C3)c2)CCC2CCC(C(=O)NC(c3ccccc3)c3ccccc3)N2C1=O", "< 6.00"]
]}

The following compounds each have a reported value; give each one's pIC50.
1. C#Cc1c(F)ccc2cc(O)cc(-c3ncc4c(N5CC6CCC(C5)N6)nc(OCC56CCCN5CC(F)C6)nc4c3F)c12 (stereo not drawn) + CNC(C)C(=O)NC1CN(S(=O)(=O)c2cccc(S(=O)(=O)N3CCC4CCC(C(=O)NC(c5ccccc5)c5ccccc5)N4C(=O)C(NC(=O)C(C)NC)C3)c2)CCC2CCC(C(=O)NC(c3ccccc3)c3ccccc3)N2C1=O
2. Cc1nc(N2CCC3(CC2)COC(C)C3N)c(CO)nc1Sc1ccnc(N)c1Cl (stereo not drawn) + CNC(C)C(=O)NC1CN(S(=O)(=O)c2cccc(S(=O)(=O)N3CCC4CCC(C(=O)NC(c5ccccc5)c5ccccc5)N4C(=O)C(NC(=O)C(C)NC)C3)c2)CCC2CCC(C(=O)NC(c3ccccc3)c3ccccc3)N2C1=O

output:
["< 5.00", "< 5.52"]

====

Would you mind telling me the reported pIC50 of each entry?
test system: NCI-H510 multicellular tumor spheroid growth, % test/control; test: Anticancer human tumor NCI-H510 cell line growth inhibition [Asc]; conditions: compound alone; run of 10/11/2022;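 note: spheroids exposed to agents for 7 days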
pIC50: −log10 of the molar value.

{"columns": ["compound", "pIC50"],
 "data": [
  ["CCN1C(C(=O)NC23CCC(C(=O)O)(CC2)CC3)C(c2cccc(Cl)c2F)C2(C(=O)Nc3cc(Cl)ccc32)C12CCCCC2 (configuration not stated)", "< 5.52"]
]}

Now look at this entry.
input: Quick one: pIC50 of Cc1c(S(C)(=O)=O)c(-c2cc(F)cc(N3CCN(c4ccc(NS(=O)(=O)c5ccc(NC(CCN6CCC(C(=O)OCCCP(=O)(O)O)CC6)CSc6ccccc6)c(S(=O)(=O)C(F)(F)F)c5)cc4)CC3)c2)c(-c2ccc(Cl)cc2)n1C(C)C (configuration not stated) ?
output: < 5.00

====

Kindly supply the reported pIC50 values for the records listed here.
test system: NCI-H510 multicellular tumor spheroid growth, % test/control; test: Anticancer human tumor NCI-H510 cell line growth inhibition [Asc]; settings: curve of first compound; second compound 1 µM;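 note: spheroids exposed to agents for 7 days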
pIC50: −log10 of the molar value.

{"columns": ["molecule", "pIC50"],
 "data": [
  ["Cc1nc(N2CCC3(CC2)COC(C)C3N)c(CO)nc1Sc1ccnc(N)c1Cl (centres undefined) + Cc1c(S(C)(=O)=O)c(-c2cc(F)cc(N3CCN(c4ccc(NS(=O)(=O)c5ccc(NC(CCN6CCC(C(=O)OCCCP(=O)(O)O)CC6)CSc6ccccc6)c(S(=O)(=O)C(F)(F)F)c5)cc4)CC3)c2)c(-c2ccc(Cl)cc2)n1C(C)C", "< 5.52"],
  ["CCN1CCN(Cc2ccc(Nc3ncc(F)c(-c4cc(F)c5nc(C)n(C(C)C)c5c4)n3)nc2)CC1 + CNC(C)C(=O)NC1CN(S(=O)(=O)c2cccc(S(=O)(=O)N3CCC4CCC(C(=O)NC(c5ccccc5)c5ccccc5)N4C(=O)C(NC(=O)C(C)NC)C3)c2)CCC2CCC(C(=O)NC(c3ccccc3)c3ccccc3)N2C1=O", "< 6.00"],
  ["NC1CCC(NC2CC2c2ccccc2)CC1 (centres undefined) + CNC(C)C(=O)NC1CN(S(=O)(=O)c2cccc(S(=O)(=O)N3CCC4CCC(C(=O)NC(c5ccccc5)c5ccccc5)N4C(=O)C(NC(=O)C(C)NC)C3)c2)CCC2CCC(C(=O)NC(c3ccccc3)c3ccccc3)N2C1=O", "< 7.00"]
]}

# input for lookup
input: Could you tell me which pIC50 is on file for NC1CCC(NC2CC2c2ccccc2)CC1 (centres undefined) + Cc1c(S(C)(=O)=O)c(-c2cc(F)cc(N3CCN(c4ccc(NS(=O)(=O)c5ccc(NC(CCN6CCC(C(=O)OCCCP(=O)(O)O)CC6)CSc6ccccc6)c(S(=O)(=O)C(F)(F)F)c5)cc4)CC3)c2)c(-c2ccc(Cl)cc2)n1C(C)C ?
output: < 7.00

====

Tested on: NCI-H510 multicellular tumor spheroid growth, % test/control
Assay: Anticancer human tumor NCI-H510 cell line growth inhibition [Asc];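 note: spheroids exposed to agents for 7 days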;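 for viability, T/C: 100% = DMSO vehicle control wells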
Settings: second compound 3 µM; first compound 0.0316 µM; stronger effect = lower value
From the text: Multicellular complex tumor spheroid response to apoptosis pathway targeting inhibitors Alrizomadlin, Pelcitoclax, and Dasminapant in combination with a variety of drugs and investigational agents in selected tumor cell lines […] Compounds. […] If the clinical Cmax for an agent had not been determined, the highest concentration tested was 10 microM. […]
Please respond with reported viability, T/C for every item in the list.
Give bare numbers, in %.

Solved entries (count: 5):
{"columns": ["molecule", "measurement-kind", "experimental-result"],
 "data": [
  ["CCN1CCN(Cc2ccc(Nc3ncc(F)c(-c4cc(F)c5nc(C)n(C(C)C)c5c4)n3)nc2)CC1 + CCN1C(C(=O)NC23CCC(C(=O)O)(CC2)CC3)C(c2cccc(Cl)c2F)C2(C(=O)Nc3cc(Cl)ccc32)C12CCCCC2", "viability, T/C", 128],
  ["O=C(c1ccc(F)c(F)c1Nc1ccc(I)cc1F)N1CC(O)([C@@H]2CCCCN2)C1 + CCN1C(C(=O)NC23CCC(C(=O)O)(CC2)CC3)C(c2cccc(Cl)c2F)C2(C(=O)Nc3cc(Cl)ccc32)C12CCCCC2", "viability, T/C", 140],
  ["NC1CCC(NC2CC2c2ccccc2)CC1 (stereo unspecified) + CCN1C(C(=O)NC23CCC(C(=O)O)(CC2)CC3)C(c2cccc(Cl)c2F)C2(C(=O)Nc3cc(Cl)ccc32)C12CCCCC2", "viability, T/C", 60],
  ["COc1c(OCCCN2CCOCC2)ccc2c3n(c(=NC(=O)c4cnc(N)nc4)nc12)CCN3 + CCN1C(C(=O)NC23CCC(C(=O)O)(CC2)CC3)C(c2cccc(Cl)c2F)C2(C(=O)Nc3cc(Cl)ccc32)C12CCCCC2", "viability, T/C", 73.9],
  ["CNC(C)C(=O)NC1CN(S(=O)(=O)c2cccc(S(=O)(=O)N3CCC4CCC(C(=O)NC(c5ccccc5)c5ccccc5)N4C(=O)C(NC(=O)C(C)NC)C3)c2)CCC2CCC(C(=O)NC(c3ccccc3)c3ccccc3)N2C1=O (stereo unspecified) + CCN1C(C(=O)NC23CCC(C(=O)O)(CC2)CC3)C(c2cccc(Cl)c2F)C2(C(=O)Nc3cc(Cl)ccc32)C12CCCCC2", "viability, T/C", 117]
]}

input: Entry O=C(c1cc(Cc2n[nH]c(=O)c3ccccc23)ccc1F)N1CCN(C(=O)C2CC2)CC1 + CCN1C(C(=O)NC23CCC(C(=O)O)(CC2)CC3)C(c2cccc(Cl)c2F)C2(C(=O)Nc3cc(Cl)ccc32)C12CCCCC2 : reported viability, T/C = ?
output: 94.5
